Quick list: inhibition per entry.
Assay: Inhibition of thioredoxin-conjugated PolyQ-62 protein aggregation expressed in Escherichia coli DH5alpha at 20 uM relative to control
Record the value in %, omitting the unit from your answer.

Read off the recorded inhibition for `CC[C@H](C)[C@H](NC(=O)CNC(=O)[C@@H]1CCCN1C(=O)[C@@H](Cc1c[nH]c2ccccc12)NC(=O)[C@H](Cc1c[nH]c2ccccc12)NC(=O)[C@H](CCCCN)NC(=O)[C@H](Cc1c[nH]c2ccccc12)NC(=O)[C@H](CC(N)=O)NC(=O)[C@H](CO)NC(C)=O)C(=O)N[C@@H](Cc1ccccc1)C(=O)N[C@@H](CC(=O)O)C(N)=O`
8.4

Name the recorded inhibition of the item `CC[C@H](C)[C@H](NC(=O)CNC(=O)[C@@H]1CCCN1C(=O)[C@H](Cc1c[nH]c2ccccc12)NC(=O)[C@@H](Cc1c[nH]c2ccccc12)NC(=O)[C@H](CCCCN)NC(=O)[C@H](Cc1c[nH]c2ccccc12)NC(=O)[C@H](CC(N)=O)NC(=O)[C@H](CO)NC(C)=O)C(=O)N[C@@H](Cc1ccccc1)C(=O)N[C@@H](CC(=O)O)C(N)=O` in your answer.
6.4

Assign inhibition to the following record: `CC[C@H](C)[C@H](NC(=O)CNC(=O)[C@@H]1CCCN1C(=O)[C@H](Cc1c[nH]c2ccccc12)NC(=O)[C@H](Cc1c[nH]c2ccccc12)NC(=O)[C@H](CCCCN)NC(=O)[C@H](Cc1c[nH]c2ccccc12)NC(=O)[C@H](CC(N)=O)NC(=O)[C@@H](CO)NC(C)=O)C(=O)N[C@@H](Cc1ccccc1)C(=O)N[C@@H](CC(=O)O)C(N)=O`
83.2

Data provenance is ChEMBL document CHEMBL1143336.
